# pIC50 per entry
Tested System: CDK12/CycK (Homo sapiens, UniProt Q9NYV4)
Sequence (Q9NYV4 with tags, fused parts or gaps, one chain of several): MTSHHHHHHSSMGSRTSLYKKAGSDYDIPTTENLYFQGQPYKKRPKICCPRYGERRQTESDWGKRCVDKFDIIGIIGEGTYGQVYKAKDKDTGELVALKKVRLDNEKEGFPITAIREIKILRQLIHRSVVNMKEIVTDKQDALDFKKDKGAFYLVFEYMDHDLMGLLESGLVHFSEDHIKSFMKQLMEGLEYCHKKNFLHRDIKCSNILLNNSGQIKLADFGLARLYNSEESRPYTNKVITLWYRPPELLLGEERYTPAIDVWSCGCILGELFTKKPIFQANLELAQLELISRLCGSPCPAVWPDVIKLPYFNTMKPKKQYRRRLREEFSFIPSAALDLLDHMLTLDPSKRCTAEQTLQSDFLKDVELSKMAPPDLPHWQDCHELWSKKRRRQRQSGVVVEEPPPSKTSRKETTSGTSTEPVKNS
Experimental Protocol: CDK12/CycK high ATP kinase assay (TR-FRET, 2 mM ATP)
Condition Summary: 2 mM ATP (high ATP); median; read-out: CDK12/CyclinK, 2 mM ATP (high ATP), IC50-[mol/l] (median)
pIC50: −log10 of the molar value.
Metric Name: pIC50

>>> reported_measurement("C[C@H]1CN(c2nc(NCc3nc4ccccc4[nH]3)n3ncc(Br)c3n2)CCN1C")
"< 4.72"
>>> reported_measurement("FC(F)(F)Cc1cnn2c(NCc3nc4ccccc4[nH]3)nc(N3CCOCC3)nc12.O=CO")
"< 4.78"
>>> reported_measurement("CC1(C)CN(c2nc(NCc3nc4ccccc4[nH]3)n3ncc(Br)c3n2)CCN1")
"< 5.34"
>>> reported_measurement("Fc1ccc2[nH]c(CNc3nc(N4CCOCC4)nc4c(-c5ccnnc5)cnn34)nc2c1F")
"< 5.11"
>>> reported_measurement("Brc1cnn2c(NCc3nc4ccccc4[nH]3)nc(OC3CCNCC3)nc12")
"< 4.70"
>>> reported_measurement("Cc1cnn2c(NCc3nc4c(F)c(F)ccc4[nH]3)nc(N3CCN(C)CC3)nc12")
"< 4.73"

* * *

Test system: CAL-120, human breast adenocarcinoma cells
Experimental Protocol: Proliferation assay CAL-120 (crystal violet, 4 days)
Format: cell-based
Condition Summary: Homo sapiens, CAL-120, 96 h, CAL-120 cells, median, read-out: Prolif-CAL-120, IC50-[mol/l] (median)
pIC50: −log10 of the molar value.
Metric Name: pIC50

>>> reported_measurement("Fc1ccc2[nH]c(CNc3nc(N4CCOCC4)nc4c(C5CCOCC5)cnn34)nc2c1F")
6.78
>>> reported_measurement("Brc1cnn2c(NCc3nnc(-c4ccccc4)[nH]3)nc(N3CCNCC3)nc12.O=CO [Example 119, formate]")
8.11
>>> reported_measurement("Cc1ccc2[nH]c(CNc3nc(N4C[C@H]5C[C@@H]4CO5)nc4c(Br)cnn34)nc2c1")
8.51
>>> reported_measurement("Cc1ccc2[nH]c(CNc3nc(N4CCOCC4)nc4c(C5CC5)cnn34)nc2c1")
8.30

* * *

Tested System: CDK2/CycE (Homo sapiens, UniProt P24941)
Experimental Protocol: CDK2/CycE kinase assay (TR-FRET, 2 mM ATP)
Condition Summary: 2 mM ATP (high ATP); median; read-out: CDK2/CyclinE, 2 mM ATP (high ATP), IC50 (median)
Metric Name: IC50

>>> reported_measurement("Fc1ccc2[nH]c(CNc3nc(N4CCOCC4)nc4c(-c5nccs5)cnn34)nc2c1F")
"> 20 µM"
>>> reported_measurement("FC(F)(F)c1ccc2[nH]c(CNc3nc(N4CCOCC4)nc4c(C5CC5)cnn34)nc2c1")
"> 20 µM"
>>> reported_measurement("Fc1ccc2[nH]c(CNc3nc(N4C[C@@H]5CCCN[C@@H]5C4)nc4c(C5CC5)cnn34)nc2c1")
"> 20 µM"

* * *

Tested System: CYCLIN K (nuclear staining in CAL-120 cells) (Homo sapiens, UniProt O75909)
Construct: endogenous in cells; host or cells: CAL-120 human breast cancer cells (DSMZ ACC 459)
Experimental Protocol: CYCLIN K nuclear protein level: immunofluorescence high content analysis (CAL-120)
Format: cell-based
Condition Summary: 24 h, 50% reduction of nuclear CCNK staining intensity, median, read-out: CYCLIN K degradation IF, DC50-[mol/l] (median)
Rule: DC50 below 0.5 nM gives Condition met. Equal to or above 0.5 nM gives Condition not met.

>>> assigned_category("Fc1ccc(-c2cnc(CNc3nc(N4CCOCC4)nc4c(Br)cnn34)[nH]2)cc1 [Example 66]")
"Condition not met"
>>> assigned_category("CN(CC(C)(C)O)c1nc(NCc2nc3cc(F)c(Cl)cc3[nH]2)n2ncc(Br)c2n1 [Example 338]")
"Condition met"
>>> assigned_category("Fc1cccc(-c2cnc(CNc3nc(N4CCOCC4)nc4c(Br)cnn34)[nH]2)c1 [Example 79]")
"Condition met"
>>> assigned_category("C[C@@H]1CN(c2nc(NCc3nnc(-c4ccccc4)[nH]3)n3ncc(Br)c3n2)C[C@H](C)N1 [Example 127]")
"Condition not met"
>>> assigned_category("Fc1cc2nc(CNc3nc(N4CCOCC4)nc4c(C5CC5)cnn34)[nH]c2cc1F [Example 318]")
"Condition not met"
>>> assigned_category("Cc1ccc2[nH]c(CNc3nc(N4C[C@@H](C)N[C@@H](C)C4)nc4c(Br)cnn34)nc2c1 [Example 209]")
"Condition met"
>>> assigned_category("Brc1cnn2c(NCc3nnc(-c4ccccn4)[nH]3)nc(N3CCOCC3)nc12 [Example 54]")
"Condition not met"
>>> assigned_category("Clc1cccc(-c2nnc(CNc3nc(N4CCOCC4)nc4c(Br)cnn34)[nH]2)c1 [Example 51]")
"Condition not met"
>>> assigned_category("FC(F)(F)c1cnn2c(NCc3nc4cc(Cl)ccc4[nH]3)nc(N3CCOCC3)nc12 [Example 275]")
"Condition met"
>>> assigned_category("CCc1cnn2c(NCc3nc4c(F)c(F)ccc4[nH]3)nc(N3CCOCC3)nc12 [Example 432]")
"Condition met"
>>> assigned_category("CN1CCN(c2nc(NCc3nc4cc(F)c(F)cc4[nH]3)n3ncc(C4CC4)c3n2)CC1 [Example 311]")
"Condition not met"
>>> assigned_category("Fc1ccc2[nH]c(CNc3nc(N4CCOCC4)nc4c([C@@H]5CC5(F)F)cnn34)nc2c1 (single isomer, unassigned) [Example 315]")
"Condition not met"
>>> assigned_category("C[C@@H]1COCCN1c1nc(NCc2nc3ccccc3[nH]2)n2ncc(Br)c2n1 [Example 56]")
"Condition not met"
>>> assigned_category("C[C@H]1COCCN1c1nc(NCc2nc3ccccc3[nH]2)n2ncc(Br)c2n1 [Example 57]")
"Condition met"
>>> assigned_category("N[C@H]1[C@@H]2C[C@H]1CN(c1nc(NCc3nc4ccccc4[nH]3)n3ncc(Br)c3n1)C2 [Example 288]")
"Condition met"
>>> assigned_category("Fc1ccc2[nH]c(CNc3nc(N4CC5CCC(C4)N5)nc4c(Cl)cnn34)nc2c1F.O=CO [Example 360]")
"Condition not met"
>>> assigned_category("Cc1cc2nc(CNc3nc(N4CCN(C)CC4)nc4c(Br)cnn34)[nH]c2cc1C [Example 342]")
"Condition met"
>>> assigned_category("Brc1cnn2c(NCc3nc4ccccc4[nH]3)nc(N3C[C@H]4C[C@@H]3CO4)nc12 [Example 102]")
"Condition not met"
>>> assigned_category("CN(CC(C)(C)O)c1nc(NCc2nc3c(F)c(Cl)ccc3[nH]2)n2ncc(Br)c2n1 [Example 374]")
"Condition met"

* * *

Tested System: CDK2/CycE (Homo sapiens, UniProt P24941)
Experimental Protocol: CDK2/CycE kinase assay (TR-FRET, 2 mM ATP)
Condition Summary: 2 mM ATP (high ATP); median; read-out: CDK2/CyclinE, 2 mM ATP (high ATP), IC50 (median)
pIC50: −log10 of the molar value.
The following molecules are listed with their measured pIC50 values.
Metric Name: pIC50

>>> reported_measurement("COc1ccc2[nH]c(CNc3nc(N4C[C@@H](C)O[C@@H](C)C4)nc4c(Br)cnn34)nc2c1")
5.05
>>> reported_measurement("c1ccc(-c2nnc(CNc3nc(N4CCOCC4)nc4c(C5CC5)cnn34)[nH]2)cc1")
4.98
>>> reported_measurement("C[C@H]1CCCCN1c1nc(NCc2nc3ccccc3[nH]2)n2ncc(Br)c2n1")
6.15
>>> reported_measurement("Fc1ccc2[nH]c(CNc3nc(N4CCOCC4)nc4c(C(F)(F)F)cnn34)nc2c1F")
4.76

* * *

Tested System: CDK12 (nuclear staining in CAL-120 cells) (Homo sapiens, UniProt Q9NYV4)
Construct: endogenous in cells; host or cells: CAL-120 human breast cancer cells (DSMZ ACC 459)
Sequence (Q9NYV4 whole entry): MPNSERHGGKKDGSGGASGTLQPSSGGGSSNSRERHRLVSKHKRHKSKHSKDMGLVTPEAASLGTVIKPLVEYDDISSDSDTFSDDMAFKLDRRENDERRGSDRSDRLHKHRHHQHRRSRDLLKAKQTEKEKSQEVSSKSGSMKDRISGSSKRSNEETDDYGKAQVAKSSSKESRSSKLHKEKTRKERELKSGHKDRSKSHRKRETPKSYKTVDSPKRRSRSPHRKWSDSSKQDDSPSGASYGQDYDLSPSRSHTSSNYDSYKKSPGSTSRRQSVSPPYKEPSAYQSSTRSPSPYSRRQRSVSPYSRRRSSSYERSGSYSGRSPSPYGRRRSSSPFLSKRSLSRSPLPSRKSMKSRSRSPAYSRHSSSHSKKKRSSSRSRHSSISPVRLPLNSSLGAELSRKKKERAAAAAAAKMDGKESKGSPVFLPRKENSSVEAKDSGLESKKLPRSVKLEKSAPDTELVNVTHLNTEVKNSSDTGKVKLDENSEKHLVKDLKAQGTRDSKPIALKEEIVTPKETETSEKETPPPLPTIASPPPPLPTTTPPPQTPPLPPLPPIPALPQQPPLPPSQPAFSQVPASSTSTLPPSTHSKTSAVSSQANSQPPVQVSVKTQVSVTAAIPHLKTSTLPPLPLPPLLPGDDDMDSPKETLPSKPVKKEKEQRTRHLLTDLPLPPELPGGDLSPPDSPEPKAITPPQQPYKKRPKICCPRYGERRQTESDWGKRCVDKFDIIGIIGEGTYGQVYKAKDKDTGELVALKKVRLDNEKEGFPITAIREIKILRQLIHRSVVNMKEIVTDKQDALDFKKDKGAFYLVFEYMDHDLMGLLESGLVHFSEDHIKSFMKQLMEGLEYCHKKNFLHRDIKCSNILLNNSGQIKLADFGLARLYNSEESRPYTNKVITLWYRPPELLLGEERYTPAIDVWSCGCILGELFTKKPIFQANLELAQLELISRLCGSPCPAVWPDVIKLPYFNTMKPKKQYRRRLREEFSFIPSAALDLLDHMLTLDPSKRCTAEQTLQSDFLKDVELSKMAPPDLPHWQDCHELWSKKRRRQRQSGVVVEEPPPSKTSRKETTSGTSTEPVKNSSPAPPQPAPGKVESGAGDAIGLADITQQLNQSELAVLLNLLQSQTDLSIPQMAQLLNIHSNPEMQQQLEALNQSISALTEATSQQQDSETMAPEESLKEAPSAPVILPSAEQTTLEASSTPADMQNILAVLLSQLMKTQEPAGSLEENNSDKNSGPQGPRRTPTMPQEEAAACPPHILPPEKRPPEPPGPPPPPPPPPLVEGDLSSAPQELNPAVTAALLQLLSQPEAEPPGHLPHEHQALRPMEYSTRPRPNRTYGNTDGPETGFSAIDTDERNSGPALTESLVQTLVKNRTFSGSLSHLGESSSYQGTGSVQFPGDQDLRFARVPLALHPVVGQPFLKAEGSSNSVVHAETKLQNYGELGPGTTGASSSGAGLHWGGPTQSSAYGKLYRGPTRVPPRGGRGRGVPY
Sequence (O75909 whole entry partner): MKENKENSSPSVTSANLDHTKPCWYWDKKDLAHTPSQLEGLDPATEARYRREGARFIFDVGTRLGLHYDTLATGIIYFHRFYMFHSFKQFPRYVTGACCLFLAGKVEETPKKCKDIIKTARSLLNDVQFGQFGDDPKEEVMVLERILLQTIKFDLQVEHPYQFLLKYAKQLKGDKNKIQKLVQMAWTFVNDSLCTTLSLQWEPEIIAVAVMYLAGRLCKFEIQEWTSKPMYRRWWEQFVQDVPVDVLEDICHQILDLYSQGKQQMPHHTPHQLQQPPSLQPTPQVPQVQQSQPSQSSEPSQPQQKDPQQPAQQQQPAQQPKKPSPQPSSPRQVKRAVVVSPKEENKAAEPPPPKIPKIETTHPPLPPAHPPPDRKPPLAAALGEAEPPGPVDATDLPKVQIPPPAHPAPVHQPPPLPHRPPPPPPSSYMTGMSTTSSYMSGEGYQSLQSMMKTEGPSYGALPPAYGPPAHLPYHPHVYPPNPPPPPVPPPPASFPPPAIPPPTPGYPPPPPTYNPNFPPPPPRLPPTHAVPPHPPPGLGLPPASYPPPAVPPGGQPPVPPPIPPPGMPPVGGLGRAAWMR
Experimental Protocol: CDK12 nuclear protein level: immunofluorescence/high content analysis (CAL-120)
Format: cell-based
Condition Summary: ratio of IC50 CDK12 high ATP kinase assay to DC50 CDK12 degradation (IF, CAL-120)
Threshold rule: (IC50 CDK12 high ATP) to (Degradation DC50 CDK12) ratio greater than or equal to 900 is satisfied; below that, not satisfied.

>>> assigned_category("NC1CCN(c2nc(NCc3nc4ccccc4[nH]3)n3ncc(Br)c3n2)CC1")
"satisfied"
>>> assigned_category("CC(C)(O)CNc1nc(NCc2nc3ccccc3[nH]2)n2ncc(Br)c2n1")
"not satisfied"
>>> assigned_category("CN1CCN(c2nc(NCc3nc4c(F)c(F)ccc4[nH]3)n3ncc(C4CC4(F)F)c3n2)CC1 (stereo not shown)")
"satisfied"
>>> assigned_category("C[C@@H]1CN(c2nc(NCc3nc4cc(F)ccc4[nH]3)n3ncc(C4CC4)c3n2)C[C@H](C)N1")
"satisfied"
>>> assigned_category("Brc1cnn2c(NCc3nnc(-c4ccccc4)[nH]3)nc(N3CCNCC3)nc12.O=CO")
"satisfied"
>>> assigned_category("Clc1cccc(-c2cnc(CNc3nc(N4CCOCC4)nc4c(Br)cnn34)[nH]2)c1")
"not satisfied"
>>> assigned_category("CN1CCN(c2nc(NCc3nc4c(F)cccc4[nH]3)n3ncc(C4CC4)c3n2)CC1")
"satisfied"
>>> assigned_category("CN(CC(C)(C)O)c1nc(NCc2nc3cc(F)c(F)cc3[nH]2)n2ncc(C3CC3)c2n1")
"not satisfied"
>>> assigned_category("CN1C[C@H]2C[C@@H]1CN2c1nc(NCc2nc3ccccc3[nH]2)n2ncc(Br)c2n1")
"satisfied"
